target-or-test-system: GABA-A receptor; alpha-1/beta-3/gamma-2 (Homo sapiens, UniProt P14867+P18507+P28472)
Sequence (P14867 whole entry): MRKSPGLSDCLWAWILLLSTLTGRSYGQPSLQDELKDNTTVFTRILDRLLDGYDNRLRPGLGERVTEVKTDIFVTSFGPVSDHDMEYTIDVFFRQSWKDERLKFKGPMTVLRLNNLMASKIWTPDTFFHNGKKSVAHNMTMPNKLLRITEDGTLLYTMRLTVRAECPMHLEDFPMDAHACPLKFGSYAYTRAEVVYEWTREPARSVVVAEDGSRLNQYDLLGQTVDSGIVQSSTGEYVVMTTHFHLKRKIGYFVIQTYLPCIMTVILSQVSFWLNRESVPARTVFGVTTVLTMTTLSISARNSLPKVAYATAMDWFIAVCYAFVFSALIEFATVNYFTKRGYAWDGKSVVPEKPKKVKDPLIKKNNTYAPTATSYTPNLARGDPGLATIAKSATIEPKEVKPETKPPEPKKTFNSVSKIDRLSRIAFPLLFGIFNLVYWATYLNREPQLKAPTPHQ
Sequence (P18507 whole entry): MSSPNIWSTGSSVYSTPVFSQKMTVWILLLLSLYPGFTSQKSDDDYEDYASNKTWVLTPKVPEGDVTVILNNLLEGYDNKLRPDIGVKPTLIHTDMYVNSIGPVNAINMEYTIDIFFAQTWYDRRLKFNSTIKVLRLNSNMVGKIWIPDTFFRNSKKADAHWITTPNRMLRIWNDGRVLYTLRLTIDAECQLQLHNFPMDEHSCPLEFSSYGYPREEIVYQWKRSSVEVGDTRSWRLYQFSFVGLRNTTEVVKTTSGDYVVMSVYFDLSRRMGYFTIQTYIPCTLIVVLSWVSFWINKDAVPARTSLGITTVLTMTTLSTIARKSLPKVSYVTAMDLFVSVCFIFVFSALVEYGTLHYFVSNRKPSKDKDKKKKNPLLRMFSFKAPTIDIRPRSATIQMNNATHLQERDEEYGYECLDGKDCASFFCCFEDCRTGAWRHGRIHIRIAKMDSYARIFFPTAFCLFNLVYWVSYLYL
Sequence (P28472 whole entry): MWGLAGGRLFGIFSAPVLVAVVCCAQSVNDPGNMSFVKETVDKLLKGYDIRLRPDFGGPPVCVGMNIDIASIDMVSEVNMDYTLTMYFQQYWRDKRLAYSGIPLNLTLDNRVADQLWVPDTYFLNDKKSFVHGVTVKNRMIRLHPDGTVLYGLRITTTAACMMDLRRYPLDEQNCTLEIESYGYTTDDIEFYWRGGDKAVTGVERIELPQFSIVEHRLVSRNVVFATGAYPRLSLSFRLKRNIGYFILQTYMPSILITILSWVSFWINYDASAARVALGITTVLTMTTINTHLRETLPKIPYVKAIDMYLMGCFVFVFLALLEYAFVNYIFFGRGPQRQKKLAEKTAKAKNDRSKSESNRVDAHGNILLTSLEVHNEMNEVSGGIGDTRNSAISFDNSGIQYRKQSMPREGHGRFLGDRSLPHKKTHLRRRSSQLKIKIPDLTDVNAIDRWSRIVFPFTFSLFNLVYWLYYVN
protocol-details: Binding affinity against alpha-1-beta-3-gamma-2 GABAA/BzR receptor subtype.
pKi: −log10 of the molar value.
Decide by pKi: equal to or exceeding 7 means 1 (yes), less means 0 (no).

Solved entries (count: 3):
CN1Cc2c(C(=O)OC(C)(C)C)ncn2-c2ccc(N=C=S)cc2C1=O = 1 (yes)
CCc1ccc2c(c1)C(=O)N(C)Cc1c(C(=O)OC(C)(C)C)ncn1-2 = 1 (yes)
CCOC(=O)c1ncn2c1[C@@H]1CCCN1C(=O)c1cc(C#C[Si](C)(C)C)ccc1-2 = 0 (no)

Now examine the next entry.
Prompt: In plain terms: is recorded pKi at least 7 for CC(=O)c1ncn2c1CN(C)C(=O)c1cc(Cl)ccc1-2 ?
Completion: 0 (no)

====

target-or-test-system: GABA-A receptor; alpha-1/beta-3/gamma-2 (Homo sapiens, UniProt P14867+P18507+P28472)
protocol-details: Binding affinity against alpha-1-beta-3-gamma-2 GABAA/BzR receptor subtype.
Format: protein-complex assay
Can you tell me Ki for the items I'm about to list?
Numbers only, in nM.

Consider the worked cases shown below.
C#Cc1ccc2c(c1)C(=O)N(C)Cc1c(C(=O)OC(C)(C)C)ncn1-2 = 26.9
C#Cc1ccc2c(c1)C(=O)N1CC[C@H]1c1c(-c3nc(C(C)C)no3)ncn1-2 = 156
C#Cc1ccc2c(c1)C(=O)N1CC[C@H]1c1c(-c3nc(CC)no3)ncn1-2 = 220

Please examine the following record next.
Prompt: Bench note: what Ki did CN1Cc2c(C(=O)OC(C)(C)C)ncn2-c2ccc(N3CCCC3)cc2C1=O show?
Completion: 5.8

====

target-or-test-system: GABA-A receptor; alpha-1/beta-3/gamma-2 (Homo sapiens, UniProt P14867+P18507+P28472)
protocol-details: Binding affinity against alpha-1-beta-3-gamma-2 GABAA/BzR receptor subtype.
Would you kindly list Ki for each of these compounds?
Numbers only, in nM.

Below, each entry is followed by its recorded Ki result.
CCOC(=O)c1ncn2c1CN(C)C(=O)c1cc(CC)ccc1-2 = 20.4
C#Cc1ccc2c(c1)C(=O)N(C)Cc1c(C(=O)OCC)ncn1-2 = 28.4
CN1Cc2c(C(=O)OCC3CC3)ncn2-c2ccc(Cl)cc2C1=O = 16.4

Your task in this section: give Ki for each listed record.
1. C=Cc1ccc2c(c1)C(=O)N(C)Cc1c(C(=O)OCC)ncn1-2
2. COc1ccc2c(c1)C(=O)N(C)Cc1c(C(=O)OC(C)(C)C)ncn1-2
3. CCCCC(=O)c1ncn2c1CN(C)C(=O)c1cc(Cl)ccc1-2
4. CN1Cc2c(C(=O)OC(C)(C)C)ncn2-c2ccc([N+](=O)[O-])cc2C1=O
5. CN1Cc2c(C(=O)OC(C)(C)C)ncn2-c2ccc(I)cc2C1=O
6. CCOC(=O)c1ncn2c1[C@@H]1CCCN1C(=O)c1cc(OC)ccc1-2
7. C#Cc1ccc2c(c1)C(=O)N1CCC[C@H]1c1c(C(=O)OCC)ncn1-2

Completion:
8.3
6.74
1580
12.8
9.7
48.5
59

Batch: Ki for all items listed.
1. CN1Cc2c(C(=O)OC(C)(C)C)ncn2-c2ccc(Cl)cc2C1=O
2. CCOC(=O)c1ncn2c1[C@@H]1CCCN1C(=O)c1cc(Br)ccc1-2

Completion:
[17.3, 49]

====

target-or-test-system: GABA-A receptor; alpha-5/beta-3/gamma-2 (Homo sapiens, UniProt P18507+P28472+P31644)
Sequence (P31644 whole entry, one chain of several): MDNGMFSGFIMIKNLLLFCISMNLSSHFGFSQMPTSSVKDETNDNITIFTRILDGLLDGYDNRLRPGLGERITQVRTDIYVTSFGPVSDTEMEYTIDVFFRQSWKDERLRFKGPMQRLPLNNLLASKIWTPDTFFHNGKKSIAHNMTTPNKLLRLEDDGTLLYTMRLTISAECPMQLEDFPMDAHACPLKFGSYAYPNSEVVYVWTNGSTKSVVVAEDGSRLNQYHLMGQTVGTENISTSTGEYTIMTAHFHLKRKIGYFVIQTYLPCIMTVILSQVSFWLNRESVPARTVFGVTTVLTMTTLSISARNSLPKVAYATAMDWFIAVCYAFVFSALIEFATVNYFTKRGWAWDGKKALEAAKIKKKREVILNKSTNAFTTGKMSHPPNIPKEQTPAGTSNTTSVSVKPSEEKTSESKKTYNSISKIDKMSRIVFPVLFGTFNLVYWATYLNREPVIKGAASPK
protocol-details: Binding affinity for Gamma-aminobutyric acid A receptor alpha-5-beta-3-gamma-2
For each entry below, report its Ki value.
One number for each entry, in nM.

Completed entries (count: 5):
CCN(CC)Cc1ncn2c1CN(C)C(=O)c1cc(Cl)ccc1-2 = 2580
CCc1ccc2c(c1)C(=O)N(C)Cc1c(C(=O)OC(C)(C)C)ncn1-2 = 1.72
CCCCCc1ncn2c1CN(C)C(=O)c1cc(Cl)ccc1-2 = 369
CCOC(=O)c1ncn2c1[C@@H]1CCCN1C(=O)c1cc(Br)ccc1-2 = 1
C#Cc1ccc2c(c1)C(=O)N1CCC[C@H]1c1c(C(=O)OCC)ncn1-2 = 1.3

Your task in this section: give Ki for each listed record.
1. CN1Cc2c(C(=O)OC(C)(C)C)ncn2-c2ccc(I)cc2C1=O
2. C#Cc1ccc2c(c1)C(=O)N1CC[C@H]1c1c(-c3nc(C(C)C)no3)ncn1-2
3. C#Cc1ccc2c(c1)C(=O)N1CC[C@H]1c1c(C(=O)OCC)ncn1-2

Completion:
1. 0.38
2. 8.5
3. 0.37

Each compound below has a reported value. Please supply its Ki.
1. CN1Cc2c(C(=O)OC(C)(C)C)ncn2-c2ccc(N=C=S)cc2C1=O
2. CCOC(=O)c1ncn2c1[C@@H]1CCCN1C(=O)c1cc(OC)ccc1-2
3. COc1ccc2c(c1)C(=O)N(C)Cc1c(C(=O)OC(C)(C)C)ncn1-2
4. CCOC(=O)c1ncn2c1[C@@H]1CCN1C(=O)c1cc(Br)ccc1-2
5. CN1Cc2c(C(=O)OC(C)(C)C)ncn2-c2ccc(C#C[Si](C)(C)C)cc2C1=O
6. CCOC(=O)c1ncn2c1[C@@H]1CCCN1C(=O)c1cc(C#C[Si](C)(C)C)ccc1-2
7. C#Cc1ccc2c(c1)C(=O)N1CCC[C@H]1c1c(-c3nc(CC)no3)ncn1-2

Completion:
1: 2.5; 2: 0.45; 3: 0.293; 4: 0.3; 5: 2.61; 6: 4; 7: 2.4

====

target-or-test-system: GABA-A receptor; alpha-6/beta-3/gamma-2 (Homo sapiens, UniProt P18507+P28472+Q16445)
Sequence (Q16445 whole entry, one chain of several): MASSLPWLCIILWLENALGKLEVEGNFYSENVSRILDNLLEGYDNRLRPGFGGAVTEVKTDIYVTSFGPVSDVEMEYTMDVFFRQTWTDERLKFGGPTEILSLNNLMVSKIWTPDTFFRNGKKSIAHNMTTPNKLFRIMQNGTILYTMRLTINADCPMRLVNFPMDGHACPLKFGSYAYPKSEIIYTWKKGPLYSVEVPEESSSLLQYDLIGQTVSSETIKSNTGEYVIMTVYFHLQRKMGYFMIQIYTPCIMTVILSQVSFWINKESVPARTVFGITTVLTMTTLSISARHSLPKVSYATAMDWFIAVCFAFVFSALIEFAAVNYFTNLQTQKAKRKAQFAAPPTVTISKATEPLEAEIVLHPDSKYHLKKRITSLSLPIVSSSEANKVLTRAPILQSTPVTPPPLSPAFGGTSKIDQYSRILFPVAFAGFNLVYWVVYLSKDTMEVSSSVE
protocol-details: Binding affinity against Gamma-aminobutyric acid A receptor alpha-6-beta-3-gamma-2
pKi: −log10 of the molar value.
Respond with true (1) for pKi values of 7 and above, false (0) for values below.

Prompt: Hi team, for CCOC(=O)c1ncn2c1CN(C)C(=O)c1cc(Br)ccc1-2 , is the recorded pKi at or above 7?
Completion: true (1)

Prompt: Given the entry CN1Cc2c(C(=O)OC(C)(C)C)ncn2-c2ccc(N3CCCC3)cc2C1=O , answer whether its pKi meets or surpasses 7.
Completion: false (0)

Prompt: Assess whether reported pKi for CN1Cc2c(C(=O)OC(C)(C)C)ncn2-c2ccc(Cl)cc2C1=O sits at 7 or higher.
Completion: true (1)

Prompt: Identify whether the reported pKi of the following compound is 7 or greater: C#Cc1ccc2c(c1)C(=O)N1CC[C@H]1c1c(C(=O)OCC)ncn1-2
Completion: true (1)

Prompt: Tell me whether pKi is at least 7 here: CCOC(=O)c1ncn2c1CN(C)C(=O)c1cc(C#N)ccc1-2
Completion: false (0)

Prompt: Answer whether pKi of C#Cc1ccc2c(c1)C(=O)N1CC[C@H]1c1c(-c3nc(CC)no3)ncn1-2 is greater than or equal to 7.
Completion: false (0)

Prompt: Could you verify whether the entry C#Cc1ccc2c(c1)C(=O)N1CC[C@H]1c1c(-c3nc(C(C)C)no3)ncn1-2 shows pKi of no less than 7?
Completion: false (0)

Prompt: Given CCc1ccc2c(c1)C(=O)N(C)Cc1c(C(=O)OC(C)(C)C)ncn1-2 , state whether its pKi is at least 7.
Completion: true (1)

Prompt: Check the entry CCOC(=O)c1ncn2c1CN(C)C(=O)c1cc(OCC)ccc1-2 : does pKi equal or exceed 7?
Completion: true (1)

====

target-or-test-system: GABA-A receptor; alpha-1/beta-3/gamma-2 (Homo sapiens, UniProt P14867+P18507+P28472)
protocol-details: Binding affinity against alpha-1-beta-3-gamma-2 GABAA/BzR receptor subtype.
Assignment: determine reported Ki for the given molecules.

C#Cc1ccc2c(c1)C(=O)N1CCC[C@@H]1c1c(-c3nc(C)no3)ncn1-2 = > 1000 nM
CCOCc1ncn2c1CN(C)C(=O)c1cc(Cl)ccc1-2 = > 300 nM
CCOC(=O)c1ncn2c1[C@H]1CCCN1C(=O)c1cc(C#C[Si](C)(C)C)ccc1-2 = > 1000 nM
CN1Cc2c(CCl)ncn2-c2ccc(Cl)cc2C1=O = > 300 nM

--- query ---
Prompt: Data request, read-out Ki, for COCc1ncn2c1CN(C)C(=O)c1cc(Cl)ccc1-2
Completion: > 300 nM

====

target-or-test-system: GABA-A receptor; alpha-6/beta-3/gamma-2 (Homo sapiens, UniProt P18507+P28472+Q16445)
protocol-details: Binding affinity against Gamma-aminobutyric acid A receptor alpha-6-beta-3-gamma-2
Decide using Ki alone. Strictly below 0.3 µM: label 1. Equal to or above 0.3 µM: label 0.

These recorded examples may help you get a feel for the data.
CCOC(=O)c1ncn2c1CN(C)C(=O)c1cc(C#C[Si](C)(C)C)ccc1-2 = label 1
C#Cc1ccc2c(c1)C(=O)N1CCC[C@@H]1c1c(C(=O)OCC)ncn1-2 = label 1
C#Cc1ccc2c(c1)C(=O)N1CCC[C@H]1c1c(-c3nc(CC)no3)ncn1-2 = label 1

Prompt: For this compound, is Ki lower than 0.3 µM? CC(C)N(Cc1ncn2c1CN(C)C(=O)c1cc(Cl)ccc1-2)C(C)C
Completion: label 0
